read-out: Plasminogen activator inhibitor-1 (PAI1), SERPINE1 (gene 5054); assay: BSK_BE3C_PAI1: BioMAP Diversity Plus: BE3C Assay for Plasminogen activator inhibitor-1 (PAI1) Biomarker Activity (AID 2283037); conditions: primary human bronchial epithelial cells; actives raise or lower the signal
Calls of active or inactive are those of the source. How the source made its calls: active means hit-call score of the fitted dose curve at least 0.9, where 1 is the maximum; inactive means score below 0.9.
Write down the outcome that applies. Available outcomes: t = active, f = inactive

Check the results log: what was the call for CCc1cccc(C)c1N(C(=O)CCl)C(C)COC (centres undefined) ?
f

---

read-out: Peroxisomal acyl-coenzyme A oxidase 1 (ACOX1) gene, ACOX1 (gene 51); assay: LTEA_HepaRG_ACOX1: Life Technologies and Expression Analysis (LTEA) Assay for Peroxisomal acyl-coenzyme A oxidase 1 (ACOX1) gene using HepaRG (AID 2283467); settings: mRNA level, 48 h; actives raise or lower the signal
Activity calls are given as the source filed them. The calls were made as follows: active = hit-call score of the fitted dose curve at least 0.9, where 1 is the maximum; inactive = score below 0.9.
recordedMetric: AC50

Illustrative cases are given below, each with its answer.
CCCOCC(=Nc1ccc(Cl)cc1C(F)(F)F)n1ccnc1 ... 72.2 µM (active)
CC(COc1ccc(Oc2ccccc2)cc1)Oc1ccccn1 (configuration not stated) ... inactive
CCc1cccc(C)c1N(C(=O)CCl)C(C)COC (configuration not stated) ... inactive
CCC(=O)Nc1ccc(Cl)c(Cl)c1 ... inactive
CCC(=NOC/C=C/Cl)C1=C(O)CC(C2CCOCC2)CC1=O (configuration not stated) ... inactive
CON=C(C(=O)OC)c1ccccc1CON=C(C)c1cccc(C(F)(F)F)c1 ... inactive
CSc1nc(NC(C)C)nc(NC(C)C)n1 ... inactive
CN(C)NC(=O)CCC(=O)O ... inactive
CCOP(=O)(OCC)Oc1cc(C)nc(C(C)C)n1 ... inactive
CCOP(=S)(OCC)OC(Cl)C(Cl)(Cl)Cl (configuration not stated) ... inactive

Hey, can you go through the list below and give me AC50 for every item?
1. O=C(O)c1cc(Oc2ccc(C(F)(F)F)cc2Cl)ccc1[N+](=O)[O-]
2. CC[C@H](C)[C@H]1O[C@]2(C=C[C@@H]1C)C[C@@H]1C[C@@H](C/C=C(\C)[C@@H](O[C@H]3C[C@H](OC)[C@@H](O[C@H]4C[C@H](OC)[C@@H](NC)[C@H](C)O4)[C@H](C)O3)[C@@H](C)/C=C/C=C3\CO[C@@H]4[C@H](O)C(C)=C[C@@H](C(=O)O1)[C@]34O)O2

1. 28.4 µM (active)
2. 13 µM (active)
